B1: ZNF449 (parent)
chain: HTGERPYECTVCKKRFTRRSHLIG

Variants of: B1
Method Description: protein stability index of a GFP-peptide fusion (GPS, HEK-293T) (PSI 1-6); higher = more stable;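 note: lentivirally expressed fusions sorted by FACS into six bins by GFP to DsRed ratio, PSI derived from sequencing read proportions per bin multiplied by bin number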
Condition Set: c terminus: a fixed tail appended
protein stability index vs 2: at or above is yes, below is no.

> print(dat)
    mutation.annotation  class
 1                  C9I    yes
 2                 H21L    yes
 3                  E4L     no
 4                 F16A    yes
 5                 H21V    yes
 6                 H21W    yes
 7                 R15S     no
 8                  T2L    yes
 9                  E4Q    yes
10                 L22I    yes
11                  P6R     no
12                 V11Q    yes
13                  P6M    yes
14                 L22S    yes
15                 R15F     no
16                 G24A    yes
17                 K13T    yes
18                 R18H     no
19                  R5M    yes
20                  P6N    yes
21                 F16L     no
